ASSAY_EXPLANATION: NCI Yeast Anticancer Drug Screen. Data for the sgs1 mgt1 strain (AID 161);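 further: 0% = growth of cultures given vehicle only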
STATED_CONDITIONS: S. cerevisiae sgs1 mgt1 strain, at 50.0 µM, stronger effect = higher value
This is part of a sample that, as a whole, favours compounds with a hit. Of some 79,000 tested, about 15% had one in any assay. Activity calls are given as the source filed them. No stated cut-off is given here; in the data, active means growth inhibition above about 70%; inactive means the rest.
ENDPOINT_NAME: growth inhibition

Example entries begin here.
MOLECULE: O=[N+]([O-])c1cccc(-c2oc(C=Nc3ccccc3)c([N+](=O)[O-])c2-c2cccc([N+](=O)[O-])c2)c1
ENDPOINT_NAME: growth inhibition
RESULT: 9.45% (inactive)

MOLECULE: c1ccc(Cc2ccc3ccccc3c2)cc1
ENDPOINT_NAME: growth inhibition
RESULT: 11.8% (inactive)

MOLECULE: COc1ccc2c3ccc4c(c3n(C)c2c1)C(=O)c1ccccc1C4=O
ENDPOINT_NAME: growth inhibition
RESULT: -53% (inactive)

MOLECULE: NC(N)=NC(CC(=O)O)c1ccccc1 (configuration not stated)
ENDPOINT_NAME: growth inhibition
RESULT: -26.4% (inactive)

I would be grateful if you could provide growth inhibition for each of the following entries.
1. CC1Cc2c([nH]c(=O)n(C)c2=O)O1 (configuration not stated)
2. Nc1[nH]n(-c2ccccc2)c(=O)c1/C=N/C(=S)N=Nc1c(O)[nH]c2ccccc12

Result:
1: 8.4% (inactive); 2: 41% (inactive)

====

ASSAY_EXPLANATION: NCI Yeast Anticancer Drug Screen. Data for the cln2 rad14 strain (AID 165);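 further: 0% = growth equal to vehicle treated cultures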
STATED_CONDITIONS: S. cerevisiae cln2 rad14 strain, at 50.0 µM, stronger effect = higher value
The panel holds about 79,000 compounds, 15% with a hit somewhere; the sample as a whole holds those more often. Calls of active or inactive are those of the source. No stated cut-off is given here; in the data, active means growth inhibition above about 70%; inactive means the rest.
Hi there, I'd appreciate the recorded growth inhibition for every entry that follows.

Example entries begin here.
COMPOUND: Nc1cc(=O)[nH]c(NCCCC(N)C(=O)O)n1 (stereo unspecified)
growth inhibition: -15.7% (inactive)

COMPOUND: COc1ccc2c3ccc4c(c3n(C)c2c1)C(=O)c1ccccc1C4=O
growth inhibition: -14.7% (inactive)

COMPOUND: Cc1cc(=O)[nH]c(N/N=C/c2ccco2)n1
growth inhibition: 6.75% (inactive)

COMPOUND: COc1ccc(N2NC(c3ccccc3)(c3ccccc3)C(C)C2=O)cc1 (stereo unspecified)
growth inhibition: 5.2% (inactive)

COMPOUND: CCCCCN(CCCCC)C(=O)C(C)Br (stereo unspecified)
growth inhibition: -12.9% (inactive)

Could you now consider this next compound?
Request: So what does the record say about growth inhibition for CCOc1ccc(NC(=O)COc2ccc(Cl)cc2Cl)cc1 ?
Result: 18.4% (inactive)

====

ASSAY_EXPLANATION: NCI Yeast Anticancer Drug Screen. Data for the cln2 rad14 strain (AID 165);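 further: 0% = growth equal to vehicle treated cultures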
STATED_CONDITIONS: S. cerevisiae cln2 rad14 strain, at 50.0 µM, stronger effect = higher value
Compounds without any hit were thinned out: in the full panel of roughly 79,000, 15% have a hit.
Hi there, I'd appreciate the recorded growth inhibition for every entry that follows.
One number for each entry, in %.

Example entries begin here.
COMPOUND: COc1ccc(C(Br)C(Br)C(=O)C(C)(C)C)cc1 (configuration not stated)
ENDPOINT_NAME: growth inhibition
MEASUREMENT_UNITS: %
READOUT_NUMBER: -21.6
--
COMPOUND: O=C(OCc1ccccc1)N(CCCCN(CCCNC(=O)C(F)(F)F)C(=O)OCc1ccccc1)CCCNC(=O)C(F)(F)F
ENDPOINT_NAME: growth inhibition
MEASUREMENT_UNITS: %
READOUT_NUMBER: 20.4
--
COMPOUND: Cc1cc(C(F)(F)F)nc2nc3ccccc3n12
ENDPOINT_NAME: growth inhibition
MEASUREMENT_UNITS: %
READOUT_NUMBER: -3.7
--
COMPOUND: CC1C[P+](c2ccccc2)(c2ccccc2)Cc2ccccc21 (configuration not stated)
ENDPOINT_NAME: growth inhibition
MEASUREMENT_UNITS: %
READOUT_NUMBER: -13.4
--
COMPOUND: COc1ccc(-c2oc3ccccc3c(=O)c2O)cc1OC
ENDPOINT_NAME: growth inhibition
MEASUREMENT_UNITS: %
READOUT_NUMBER: -10.8
--
COMPOUND: O=c1c(O)c(O)c1=O
ENDPOINT_NAME: growth inhibition
MEASUREMENT_UNITS: %
READOUT_NUMBER: 0.7
--
COMPOUND: COC1=NS(=O)(=O)C2(O1)c1ccccc1-c1ccccc12
ENDPOINT_NAME: growth inhibition
MEASUREMENT_UNITS: %
READOUT_NUMBER: 13.2
--
COMPOUND: C=CCOc1ccc(C2C(C(=O)OC)C(=O)CC(O)(c3ccccc3)C2C(=O)OC)cc1OC (configuration not stated)
ENDPOINT_NAME: growth inhibition
MEASUREMENT_UNITS: %
READOUT_NUMBER: -13.2
--
COMPOUND: COc1cc2c(c(OC)c1OC)-c1ccc(OC)c(=O)cc1C(NC(=S)Nc1ccccc1)CC2 (configuration not stated)
ENDPOINT_NAME: growth inhibition
MEASUREMENT_UNITS: %
READOUT_NUMBER: 93.5
--
COMPOUND: O=C(c1ccccc1)c1ccc2c(c1)-c1ccccc1-2
ENDPOINT_NAME: growth inhibition
MEASUREMENT_UNITS: %
READOUT_NUMBER: -21.1

I would be grateful if you could provide growth inhibition for each of the following entries.
1. CC1(COC(=O)C2(C)CO2)CO1 (configuration not stated)
2. COc1cc(C=O)cc(OC)c1
3. O=C(O)c1ccccc1CC(C(=O)O)C(=O)O
4. CCOC(=O)Nc1cccc(Cl)c1Cl
5. CCOC(=O)c1c(C(=O)OCC)c(C)n(/N=N/n2c(C)c(C(=O)OCC)c(C(=O)OCC)c2C)c1C
6. Nc1ccc([N+](=O)[O-])c(C(F)(F)F)c1
7. CCOC(=O)C(C)(C)Oc1ccc(N=[N+]=[N-])cc1

Result:
[4.7, 12.4, 7.95, 6.75, 26.3, -14.4, 4.35]

I would be grateful if you could provide growth inhibition for each of the following entries.
1. CCOC(=O)N1C=Cc2c(c3ccccc3n2C)N1C(=O)OCC
2. COc1cc(/C=C\c2ccc(SC)cc2)cc(OC)c1OC
3. Cc1ccc(C)c2c1C(=O)c1ccccc1C2(O)C#Cc1ccccc1 (configuration not stated)

Result:
1. -6.3
2. 15.3
3. 21.1

I would be grateful if you could provide growth inhibition for each of the following entries.
1. CCOC(CCCl)c1ccc(C)cc1 (configuration not stated)
2. O=C(/C=C/C(=O)NCCc1ccccc1)NCCc1ccccc1

Result:
[20.1, -7.45]

====

ASSAY_EXPLANATION: NCI Yeast Anticancer Drug Screen. Data for the rad50 strain (AID 155);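 further: 0% = growth of vehicle-only cultures of the same strain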
STATED_CONDITIONS: S. cerevisiae rad50 strain growth inhibition; at 50.0 µM; stronger effect = higher value
Compounds without any hit were thinned out: in the full panel of roughly 79,000, 15% have a hit.
Hi there, I'd appreciate the recorded growth inhibition for every entry that follows.
Answers are plain numbers, in %.

Example entries begin here.
MOLECULE: O=C1OC(c2ccccc2)=N/C1=C\c1cccnc1
MEASUREMENT_UNITS: %
READOUT_NUMBER: 12.3

MOLECULE: CCc1cccc(CC)c1NC(=S)NN
MEASUREMENT_UNITS: %
READOUT_NUMBER: 17.4

MOLECULE: Cc1cc2c(cc1N)C(C)(C)CCC2(C)C
MEASUREMENT_UNITS: %
READOUT_NUMBER: -4.65

I would be grateful if you could provide growth inhibition for each of the following entries.
1. CCOC(=O)c1cnc(=O)n(Cc2ccccc2)c1N
2. COC(C)CCOC(=O)c1cccc(C)c1 (stereo not drawn)
3. O=C1CCCCCCCCCCC1Br (stereo not drawn)
4. COc1cc2c(c(OC)c1OC)-c1ccc(OC)c(=O)cc1C(NC(=S)Nc1ccccc1)CC2 (stereo not drawn)
5. COC1OC(COC(c2ccccc2)(c2ccccc2)c2ccccc2)C(OS(=O)(=O)c2ccc(C)cc2)C(OC(=O)c2ccccc2)C1OC(=O)c1ccccc1 (stereo not drawn)

Result:
1. -1.25
2. 9
3. 43.2
4. 96.5
5. 0.1

====

ASSAY_EXPLANATION: NCI Yeast Anticancer Drug Screen. Data for the mec2-1 strain (AID 157)
STATED_CONDITIONS: S. cerevisiae mec2-1 strain, at 50.0 µM, stronger effect = higher value
The panel holds about 79,000 compounds, 15% with a hit somewhere; the sample as a whole holds those more often.
ENDPOINT_NAME: growth inhibition (%)
Give bare numbers, in %.

COMPOUND: CC(=O)c1c2c(cc3c1CC1(C3)Cc3cc4c(c(C(C)=O)c3C1)CCC4)CCC2
growth inhibition / %: -31.4
//
COMPOUND: CC1(C)C(=O)NC(=O)N1CO
growth inhibition / %: 2.4
//
COMPOUND: CC1(c2ccccc2)CCC(=O)NC1 (centres undefined)
growth inhibition / %: -37.5
//
COMPOUND: C[CH2][Sn]([CH2]C)([N](c1ccccn1)c1ccccn1)[N](c1ccccn1)c1ccccn1
growth inhibition / %: -2.25

I would be grateful if you could provide growth inhibition for each of the following entries.
1. CCOC(=O)C1NC(=O)C(C(=O)OCC)C1C(C)C (centres undefined)
2. COc1cccc(C2N=NC3=C(CCCC3)N2O)c1O (centres undefined)
3. Cc1ccc(NC(=O)c2ccccc2)cc1
4. CCOC(=O)CCCCCOC1CCCCO1 (centres undefined)

Result:
1: 20.9; 2: 11; 3: 4.7; 4: 18.2

Request: So what does the record say about growth inhibition for C=CCOC/C=C\CCOCC/C=C/COCC=C (tested in a mixture with another compound) ?
Result: 1.3
